- Tested system: Serine protease 1 (Homo sapiens)
- Sequence (P07477 whole entry): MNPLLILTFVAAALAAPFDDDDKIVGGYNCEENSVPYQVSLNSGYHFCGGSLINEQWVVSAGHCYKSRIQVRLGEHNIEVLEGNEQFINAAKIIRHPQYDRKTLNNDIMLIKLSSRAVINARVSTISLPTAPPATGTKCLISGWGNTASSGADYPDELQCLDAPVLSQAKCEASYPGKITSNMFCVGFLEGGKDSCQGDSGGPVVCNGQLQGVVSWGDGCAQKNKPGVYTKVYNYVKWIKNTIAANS
Readout: IC50 (nM)

A = CCN(CC)C(=O)c1cccc(-c2ccc3c(c2)[C@@H]2[C@@H](CCCCC(=N)N)C(=O)N(C(=O)OC)[C@H]2C3)c1
B = N=C(N)CCCC[C@H]1C(=O)N(CCCCCc2ccccc2)[C@H]2Cc3ccccc3[C@H]12
### Prompt Of the two listed items, which has the higher IC50? First: A Second: B Lab log: write the label of the selected item as the result.
### Response B
(B: 9700 nM, A: 2200 nM)

###

- Tested system: Prothrombin (Homo sapiens, UniProt P00734)
Readout: IC50 (nM)

# annotated cases, reported IC50 shown
| Compound | IC50 [nM] |
| --- | --- |
| CCN(CC)C(=O)c1cccc(-c2ccc3c(c2)[C@@H]2[C@@H](CCCCC(=N)N)C(=O)N(C(=O)N(C)C)[C@H]2C3)c1 | 11000 |
| CCN(CC)C(=O)c1cccc(-c2ccc3c(c2)C[C@H]2[C@H]3[C@@H](CCCCC(=N)N)C(=O)N2C(=O)OCCCc2ccccc2)c1 | 660 |
| COC(=O)CN1C(=O)[C@H](CCCCC(=N)N)[C@H]2c3ccccc3C[C@@H]21 | 43000 |
| CCN(CC)C(=O)c1cccc(-c2ccc3c(c2)[C@@H]2[C@@H](CCCCC(=N)N)C(=O)N(S(=O)(=O)c4ccccc4)[C@H]2C3)c1 | 16 |

P = CCN(CC)C(=O)c1cccc(-c2ccc3c(c2)C[C@H]2[C@H]3[C@@H](CCCCC(=N)N)C(=O)N2C(=O)OC)c1
Q = CCC(=O)N1C(=O)[C@H](CCCCC(=N)N)[C@H]2c3cc(-c4cccc(C(=O)N(CC)CC)c4)ccc3C[C@@H]21
### Prompt Of the two listed items, which has the higher IC50? First: P Second: Q Lab log: write the label of the selected item as the result.
### Response Q

I = CCN(CC)C(=O)c1cccc(-c2ccc3c(c2)[C@@H]2[C@@H](CCCCC(=N)N)C(=O)N(C(=O)OCCCc4ccccc4)[C@H]2C3)c1
II = CCN(CC)C(=O)c1cccc(-c2ccc3c(c2)[C@@H]2[C@@H](CCCCC(=N)N)C(=O)N(CCCCCc4ccccc4)[C@H]2C3)c1
### Prompt Record comparison, field IC50: mark the lower of I and II . Lab log: write the label of the selected item as the result.
### Response I
(I: 130 nM, II: 5000 nM)
